target: Ubiquitin carboxyl-terminal hydrolase 28 (Homo sapiens) (UniProt Q96RU2); assay: Concentration-response biochemical assay confirming initial hits as inhibitors of ubiquitin-specific protease 28 (AID 1645866); details: purified USP28, ubiquitin-rhodamine fluorescence, 30 min
Sequence (Q96RU2 whole entry, looked up): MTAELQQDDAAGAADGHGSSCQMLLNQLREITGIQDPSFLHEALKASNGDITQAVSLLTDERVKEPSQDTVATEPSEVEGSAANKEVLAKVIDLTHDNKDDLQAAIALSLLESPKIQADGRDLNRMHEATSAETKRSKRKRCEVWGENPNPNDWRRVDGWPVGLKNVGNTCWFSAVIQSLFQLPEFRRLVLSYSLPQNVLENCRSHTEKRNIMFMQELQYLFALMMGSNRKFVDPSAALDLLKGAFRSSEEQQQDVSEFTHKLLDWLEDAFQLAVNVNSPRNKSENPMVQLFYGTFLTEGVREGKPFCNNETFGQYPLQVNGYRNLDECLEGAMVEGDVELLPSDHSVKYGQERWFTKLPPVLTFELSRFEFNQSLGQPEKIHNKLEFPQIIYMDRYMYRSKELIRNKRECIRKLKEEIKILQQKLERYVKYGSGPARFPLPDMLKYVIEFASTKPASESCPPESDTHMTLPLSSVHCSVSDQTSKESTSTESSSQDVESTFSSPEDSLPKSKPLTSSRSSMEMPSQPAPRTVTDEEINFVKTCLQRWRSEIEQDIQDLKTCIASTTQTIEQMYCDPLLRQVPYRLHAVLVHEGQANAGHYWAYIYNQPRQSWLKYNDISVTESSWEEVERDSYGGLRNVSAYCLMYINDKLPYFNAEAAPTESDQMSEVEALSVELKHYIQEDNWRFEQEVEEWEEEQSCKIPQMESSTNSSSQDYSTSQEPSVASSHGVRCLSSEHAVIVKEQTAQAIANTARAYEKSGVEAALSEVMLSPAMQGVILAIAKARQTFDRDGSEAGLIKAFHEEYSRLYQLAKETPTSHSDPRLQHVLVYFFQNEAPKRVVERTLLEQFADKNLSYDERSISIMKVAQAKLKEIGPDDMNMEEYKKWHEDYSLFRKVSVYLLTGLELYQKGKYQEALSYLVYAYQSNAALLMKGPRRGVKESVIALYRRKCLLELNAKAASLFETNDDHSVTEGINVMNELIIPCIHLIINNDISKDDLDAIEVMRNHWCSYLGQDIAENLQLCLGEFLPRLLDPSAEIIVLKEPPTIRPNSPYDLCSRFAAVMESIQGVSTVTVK
Active and inactive are the calls of the source.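 The calls were made as follows: active = in confirmatory dose-response testing, peak deubiquitinase inhibition of 30% or more; inactive = the rest.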
Outcomes: active, inactive

molecule: CC(C)c1cc(Nc2cccc(F)c2)n2nc(-c3cccnc3)nc2n1
assigned class: active

molecule: CCCCCn1c(Sc2ccc(C)cc2)nc2c1c(=O)[nH]c(=O)n2C
assigned class: active

molecule: Cc1ccc(-c2cnc(C3CC3)o2)cc1S(=O)(=O)Nc1ccc(F)c(Cl)c1
assigned class: active

molecule: N#Cc1cc(C(=O)c2ccc(Cl)cc2)c[nH]1
assigned class: active

molecule: O=C(Nc1cccc(C(F)(F)F)c1)N1CCCn2c(nc3ccccc32)C1
assigned class: active

molecule: O=C(CCn1c(=O)c2ccccc2n(Cc2cc(=O)n3ccccc3n2)c1=O)NCCc1ccc(Cl)cc1
assigned class: active

molecule: COc1ccc(CCNC(=O)COc2ncnc3oc(C)c(C)c23)cc1OC
assigned class: inactive

molecule: N#Cc1ccccc1Cn1c(=O)n(CCCCC(=O)NCc2ccco2)c(=O)c2ccccc21
assigned class: active

molecule: Cc1ccc(NC(=O)Cn2cc(S(=O)(=O)N3CCCC3)ccc2=O)cc1
assigned class: active

molecule: COc1ccc(NC(=O)C2Oc3ccc(C)cc3NC2=O)cc1Cl (centres undefined)
assigned class: active

molecule: CCCCCCCCCC(CCCCCCCCCC(=O)O)O[C@H]1O[C@@H](COC(C)=O)[C@H](O)[C@@H](O)[C@H]1OC(=O)CC(=O)O (some centres undefined)
assigned class: active

molecule: O=C(CCSc1ccc(Cl)cc1)c1cccs1
assigned class: active

molecule: CSc1cccc(NC(=O)CNC(=O)c2cc3ccccc3o2)c1
assigned class: active

molecule: NS(=O)(=O)c1cccc(NC(=O)CN2CCCc3ccccc32)c1
assigned class: inactive

====

target: Ubiquitin carboxyl-terminal hydrolase 28 (Homo sapiens); assay: Concentration-response biochemical assay confirming initial hits as inhibitors of ubiquitin-specific protease 28 (AID 1645866); conditions: purified USP28, ubiquitin-rhodamine fluorescence, 30 min
Calls of active or inactive are those of the source.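 How the source made its calls: active means in confirmatory dose-response testing, peak deubiquitinase inhibition of 30% or more; inactive means the rest.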
Outcomes: T for active, F for inactive

molecule: COc1ncccc1CN1CCn2c(Cn3cncn3)cnc2C1C (stereo not given)
assigned class: F
--
molecule: CSc1ccccc1NC(=O)c1ccc(-n2cccn2)nn1
assigned class: T
--
molecule: COc1ccc(/C=C/C(=O)Nc2cccc(S(=O)(=O)Nc3ccccc3Cl)c2)c(OC)c1
assigned class: T
--
molecule: O=C(COc1cccc(C(=O)NCc2ccccc2)c1)Nc1ccc(Oc2ccccc2)cc1
assigned class: T
--
molecule: Cc1cccc(C(=O)N2CCN3Cc4ccccc4N(C)CC3C2)c1 (stereo not given)
assigned class: F
--
molecule: O=C(NCc1ccc(F)cc1)C1CCCN(c2cnc3nccnc3c2)C1 (stereo not given)
assigned class: F
--
molecule: COc1cccc(NC(=O)c2cnc3c(c2)c(=O)n(C)c(=O)n3C)c1
assigned class: T
--
molecule: COc1cc(O)c2c(=O)c(-c3ccc(O)cc3)coc2c1
assigned class: T
--
molecule: O=C(NCc1ccc2c(c1)OCO2)c1ccc(C2SCC(=O)N2Cc2ccco2)cc1 (stereo not given)
assigned class: F
--
molecule: Cc1ccc(-c2ccc(N3CCOCC3)nn2)cc1S(=O)(=O)N1CCOCC1
assigned class: F
--
molecule: CCOC(=O)c1cc2c(ccn2C)n1Cc1cccc2ccccc12
assigned class: F
--
molecule: Cn1cc(-c2noc(Cc3cccc(C(F)(F)F)c3)n2)ccc1=O
assigned class: T
--
molecule: Cc1cccc(NC(=O)Cn2c(N3CCOCC3)nc3cc(C)n(C)c3c2=O)c1
assigned class: T
--
molecule: CC(C)(C)c1cc(CCC(=O)Nc2c3c(nc4c2CCC4)CCCC3)cc(C(C)(C)C)c1O
assigned class: F
--
molecule: CCOC(=O)c1cc2c(ccn2C)n1CC(=O)N1CCc2ccccc2C1
assigned class: F
--
molecule: Cn1c(CCN2CCCC2)nc2cc(NS(=O)(=O)c3ccccc3)ccc21
assigned class: F
--
molecule: COc1ccc(-c2cc3nc([C@@H](C)NC(=O)c4ccc5c(c4)OCO5)nn3cn2)cc1
assigned class: T
--
molecule: O=C(Nc1ccc(Cl)cc1)Nc1cccn2ncnc12
assigned class: T
--
molecule: COc1ccc(-c2[nH]c3ccccc3c2SCCNC(=O)c2ccc(S(=O)(=O)N3CCOCC3)cc2)cc1
assigned class: T
--
molecule: CCOCCCn1c(SCC(=O)Nc2ccccc2C(F)(F)F)nc2ccccc2c1=O
assigned class: T
--
molecule: COc1ccc2c(c1)CCc1c(C(=O)NCc3cccnc3)noc1-2
assigned class: T
--
molecule: CCc1cccc2c(C(=O)COc3ccc(C#N)cc3)c[nH]c12
assigned class: T
--
molecule: O=c1[nH]c(C2CCN(S(=O)(=O)c3ccc(S(=O)(=O)NC4CCCCC4)cc3)CC2)nc2c1nnn2Cc1c(Cl)cccc1Cl
assigned class: T
--
molecule: COc1ncccc1CN1CCn2c(Cn3cccn3)cnc2C1C (stereo not given)
assigned class: F
--
molecule: CCOc1ccc(CCNC(=O)c2ccc3c(c2)N(CC)C(=O)c2ccccc2S3)cc1OCC
assigned class: T
--
molecule: O=C(Cn1c(=O)n(Cc2ccccc2)c(=O)c2ncccc21)NCc1ccccc1Cl
assigned class: T
--
molecule: Cc1ccccc1NC(=O)Cn1cc(-c2nc(C3CC3)no2)ccc1=O
assigned class: F
--
molecule: CC(=O)Nc1ccc(O)c(-c2nc3cc(C)ccc3o2)c1
assigned class: T
--
molecule: CN1CCN(C(=O)c2cc(-c3ccn(-c4ccccc4)n3)n3ccccc23)CC1
assigned class: F
--
molecule: O=C1CC(c2ccco2)Cc2[nH]c(=O)c(-c3nc(-c4ccc(Cl)cc4)cs3)cc21 (stereo not given)
assigned class: F
--
molecule: O=C1CC(C(=O)Nc2ccccc2Cl)n2nc(-c3ccccc3)cc2N1 (stereo not given)
assigned class: T
--
molecule: CC(C)N1CC2CN(Cc3ccc(Cl)cc3)CCN2Cc2ccccc21 (stereo not given)
assigned class: F
--
molecule: O=C(Cn1nnc(-c2ccc(F)cc2)n1)NCCc1ccccc1
assigned class: T
--
molecule: COc1ccc(CCNC(=O)c2cc3ccccc3s2)cc1OC
assigned class: T
--
molecule: Cc1nnc(NCc2cccnc2)c2c1nnn2Cc1ccccc1Cl
assigned class: T

====

molecular target: Ubiquitin carboxyl-terminal hydrolase 28 (Homo sapiens); experiment: Concentration-response biochemical assay confirming initial hits as inhibitors of ubiquitin-specific protease 28 (AID 1645866); conditions: purified USP28, ubiquitin-rhodamine fluorescence, 30 min
Calls of active or inactive are those of the source.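 Rule for the calls: active = in confirmatory dose-response testing, peak deubiquitinase inhibition of 30% or more; inactive = the rest.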
Entries and their IC50
value kind: IC50

molecule: O=C(Cn1cnc2c(oc3ccccc32)c1=O)NCc1ccccc1Cl
value kind: IC50
result: 22.2 µM
//
molecule: COc1ccc(COc2ccc3c(C)c(CC(=O)N4CC[C@@]5(O)CCCC[C@H]5C4)c(=O)oc3c2)cc1
value kind: IC50
result: 2.27 µM
//
molecule: CCCC(=O)c1c[nH]c(C(=O)NCc2ccc(F)cc2)c1
value kind: IC50
result: 18.7 µM
//
molecule: CCc1ccc(-n2nc(C)c3c2NC(=O)CC3C(=O)c2ccc3c(c2)OCCO3)cc1 (stereo not drawn)
value kind: IC50
result: 26.4 µM
//
molecule: Cc1ccc(NC(=O)CNC(=O)c2cc3ccccc3o2)cc1
value kind: IC50
result: 21.2 µM
//
molecule: CCc1ccc2c(c1)[C@]1(C(=O)N2)[C@@H]2C(=O)N(c3ccc(Cl)cc3Cl)C(=O)[C@@H]2[C@@H]2CCCN21
value kind: IC50
result: > 50 µM (inactive)
//
molecule: CSc1nc(Cc2ccc(Cl)cc2)nc2ccccc12
value kind: IC50
result: 14 µM
//
molecule: CCn1ccc2c(cc(C(=O)Nc3cc(F)ccc3F)n2C)c1=O
value kind: IC50
result: 2.22 µM

====

target: Ubiquitin carboxyl-terminal hydrolase 28 (Homo sapiens); test: Concentration-response biochemical assay confirming initial hits as inhibitors of ubiquitin-specific protease 28 (AID 1645866); conditions: purified USP28, ubiquitin-rhodamine fluorescence, 30 min
Activity calls are given as the source filed them.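 The calls were made as follows: active = in confirmatory dose-response testing, peak deubiquitinase inhibition of 30% or more; inactive = the rest.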
Outcomes: active, inactive

compound: Cc1ccc(Nc2nc(Nc3cccc(F)c3)nc3nccnc23)c(C)c1
assigned class: inactive

compound: Clc1cncc(Oc2nc(-c3cccnc3)nc3ccccc23)c1
assigned class: active

compound: CC(C)NS(=O)(=O)c1ccc(CCC(=O)Nc2ccc3c(c2)OCCO3)cc1
assigned class: active

compound: CN1C(=O)[C@]23CC4=CC=C[C@H](O)[C@H]4N2C(=O)[C@@]1(CO)SS3
assigned class: inactive

compound: O=C(/C=C/c1c(F)cccc1Cl)N1CCc2ccccc2C1
assigned class: active

compound: CN(C)C(=O)CSc1nnc(-c2cccc(Cl)c2)n1-c1ccc(Cl)c(C(F)(F)F)c1
assigned class: active

compound: O=C(Nc1ccncc1)c1ncoc1-c1cccc(Cl)c1
assigned class: active

compound: CC1(C)CC2CC(C)(CN2Cc2c(O)ccc3ccccc23)C1 (centres undefined)
assigned class: inactive

compound: COc1cc(NC(=O)c2ccc3c(c2)OCO3)ccc1-c1cc2ccccc2oc1=O
assigned class: active

Data provenance: PubChem BioAssay AID1645866
